- Test system: Escherichia coli
- EXPERIMENT: Selectivity index, ratio of MIC for against Escherichia coli isolate 210737 to MIC for Escherichia coli isolate 210737 in presence of BPL
- Assay type: functional
What Selectivity Index was measured for each of the following?
Write the value as a bare number.

In plain terms, CC(=O)OC[C@@H]1[C@H](NC(=O)/C(=N\OC(c2cc(=O)c(O)cn2O)C(C)C)c2csc(N)n2)C(=O)N1S(=O)(=O)O (some centres not stated) has a documented Selectivity Index of 1

Looking up Cc1nnc(SC[C@@H]2[C@H](NC(=O)/C(=N\OC(c3cc(=O)c(O)cn3O)C(C)C)c3csc(N)n3)C(=O)N2S(=O)(=O)O)s1 (some centres not stated) , I found its Selectivity Index recorded as 2

The reported value for CC(C)C(O/N=C(\C(=O)NC1C(=O)N(S(=O)(=O)O)C12CCCC2)c1csc(N)n1)c1cc(=O)c(O)cn1O (configuration not stated) in terms of Selectivity Index is 2

So, CC(C)C(O/N=C(\C(=O)N[C@@H]1C(=O)N(S(=O)(=O)O)[C@@H]1Cn1cc(COCc2cc(=O)c(O)cn2O)nn1)c1csc(N)n1)c1cc(=O)c(O)cn1O (some centres not stated) ? Its Selectivity Index was 2

Value of measured Selectivity Index for the entry CC(C)C(O/N=C(\C(=O)N[C@@H]1C(=O)N(S(=O)(=O)O)[C@@H]1CN1CCNC1=O)c1csc(N)n1)c1cc(=O)c(O)cn1O (some centres not stated) : 2

Recorded Selectivity Index (compound Cc1csc(SC[C@@H]2[C@H](NC(=O)/C(=N\OC(c3cc(=O)c(O)cn3O)C(C)C)c3csc(N)n3)C(=O)N2S(=O)(=O)O)n1 (some centres not stated) ): 2

Reported Selectivity Index of CC(C)C(O/N=C(\C(=O)N[C@@H]1C(=O)N(S(=O)(=O)O)[C@@H]1CSc1nc(=O)c(O)nn1C)c1csc(N)n1)c1cc(=O)c(O)cn1O (some centres not stated) : 2

Per the records, this compound ( COC[C@@H]1[C@H](NC(=O)/C(=N\OC(c2cc(=O)c(O)cn2O)C(C)C)c2csc(N)n2)C(=O)N1S(=O)(=O)O (some centres not stated) ) has Selectivity Index equal to 1

The value of Selectivity Index measured for the compound CC(C)C(O/N=C(\C(=O)N[C@@H]1C(=O)N(S(=O)(=O)O)[C@@H]1COC(N)=O)c1csc(N)n1)c1cc(=O)c(O)cn1O (some centres not stated) turned out to be 1

###

For each record, write down the corresponding MIC.
- Test system: Klebsiella pneumoniae
- EXPERIMENT: Antibacterial activity against KPC-2 producing Klebsiella pneumoniae isolate 209632 after 18 hrs by CLSI broth microdilution method
- Assay type: functional
- CONDITION_CONTEXT: isolate 209632, 18 h
Unit µg/mL implied. Number only.

Given item CC(C)C(O/N=C(\C(=O)N[C@@H]1C(=O)N(S(=O)(=O)O)[C@@H]1COC(N)=O)c1csc(N)n1)c1cc(=O)c(O)cn1O (stereo partly specified) , the value recorded as its MIC is 8

Lab note: measured MIC of CC(C)C(O/N=C(\C(=O)N[C@@H]1C(=O)N(S(=O)(=O)O)[C@@H]1CSc1nnnn1C)c1csc(N)n1)c1cc(=O)c(O)cn1O (stereo partly specified) was 1

Looking up CC(C)C(O/N=C(\C(=O)N[C@@H]1C(=O)N(S(=O)(=O)O)[C@@H]1CSc1nc2ccccc2o1)c1csc(N)n1)c1cc(=O)c(O)cn1O (stereo partly specified) , I found its MIC recorded as 2

// MIC value for CC(C)C(O/N=C(\C(=O)NC1C(=O)N(S(=O)(=O)O)C12CCCCC2)c1csc(N)n1)c1cc(=O)c(O)cn1O (stereo unspecified) : 8

###

- Tested on: Pseudomonas aeruginosa
- EXPERIMENT: Selectivity index, ratio of MIC for against IMP-4 producing Pseudomonas aeruginosa isolate 208247 to MIC for against IMP-4 producing Pseudomonas aeruginosa isolate 208247 in presence of BPL
- Format: functional
VALUE_TYPE: Selectivity Index
Lab note: record just the number, no unit beside it.

Value of Selectivity Index reported for the compound C#CC1[C@H](NC(=O)/C(=N\OC(c2cc(=O)c(O)cn2O)C(C)C)c2csc(N)n2)C(=O)N1S(=O)(=O)O (some centres undefined) is 2

Consider CC(C)C(O/N=C(\C(=O)N[C@@H]1C(=O)N(S(=O)(=O)O)C12CCCC2)c1csc(N)n1)c1cc(=O)c(O)cn1O (some centres undefined) . Its measured Selectivity Index is 2

Documented Selectivity Index of CC(=O)OC[C@@H]1[C@H](NC(=O)/C(=N\OC(c2cc(=O)c(O)cn2O)C(C)C)c2csc(N)n2)C(=O)N1S(=O)(=O)O (some centres undefined) : 1

Per the records, this compound ( CC(C)C(O/N=C(\C(=O)N[C@@H]1C(=O)N(S(=O)(=O)O)[C@@H]1CN1CCNC1=O)c1csc(N)n1)c1cc(=O)c(O)cn1O (some centres undefined) ) has Selectivity Index equal to 1

###

- Tested on: Escherichia coli
- EXPERIMENT: Selectivity index, ratio of MIC for against Escherichia coli isolate 210737 to MIC for Escherichia coli isolate 210737 in presence of BPL
- Assay type: functional
VALUE_TYPE: Selectivity Index
Please give only the number in your answer, with no unit.

Observed Selectivity Index on Escherichia coli, entry CC(C)C(O/N=C(\C(=O)NC1C(=O)N(S(=O)(=O)O)C12CCCCC2)c1csc(N)n1)c1cc(=O)c(O)cn1O (configuration not stated) , equals 2

Known value: Escherichia coli Selectivity Index of the molecule CC(C)C(O/N=C(\C(=O)N[C@@H]1C(=O)N(S(=O)(=O)O)C12CCCC2)c1csc(N)n1)c1cc(=O)c(O)cn1O (some centres not stated) equals 8

With Escherichia coli as the test system, CC(C)C(O/N=C(\C(=O)NC1C(=O)N(S(=O)(=O)O)C12CCOCC2)c1csc(N)n1)c1cc(=O)c(O)cn1O (configuration not stated) showed Selectivity Index of 1

Short answer on Escherichia coli for CC(C)C(O/N=C(\C(=O)N[C@@H]1C(=O)N(S(=O)(=O)O)[C@@H]1CCl)c1csc(N)n1)c1cc(=O)c(O)cn1O (some centres not stated) , Selectivity Index: 4

Form: item CC(C)C(O/N=C(\C(=O)N[C@@H]1C(=O)N(S(=O)(=O)O)[C@@H]1COS(=O)(=O)O)c1csc(N)n1)c1cc(=O)c(O)cn1O (some centres not stated) ; test system Escherichia coli; Selectivity Index: 1

So the reported Selectivity Index for CC(C)C(O/N=C(\C(=O)NC1C(=O)N(S(=O)(=O)O)C12CCC2)c1csc(N)n1)c1cc(=O)c(O)cn1O (configuration not stated) , on Escherichia coli, turned out to be 8

Selectivity Index of CC(C)C(O/N=C(\C(=O)N[C@@H]1C(=O)N(S(=O)(=O)O)[C@@H]1CSc1nnnn1C)c1csc(N)n1)c1cc(=O)c(O)cn1O (some centres not stated) , assay on Escherichia coli, is 2

###

- Tested on: Escherichia coli
- EXPERIMENT: Selectivity index, ratio of MIC for against Escherichia coli isolate 210737 to MIC for Escherichia coli isolate 210737 in presence of BPL
- Format: functional
VALUE_TYPE: Selectivity Index
Reply: number alone, nothing else.

Entry CC(C)C(O/N=C(\C(=O)N[C@@H]1C(=O)N(S(=O)(=O)O)[C@@H]1CN1CCNCC1)c1csc(N)n1)c1cc(=O)c(O)cn1O (some centres undefined) — recorded Selectivity Index = 1

// Selectivity Index value for CC(C)C(O/N=C(\C(=O)N[C@@H]1C(=O)N(S(=O)(=O)O)[C@@H]1COC(=O)CNC(=O)c1cc(=O)c(O)c[nH]1)c1csc(N)n1)c1cc(=O)c(O)cn1O (some centres undefined) : 2

# compound CC(C)C(O/N=C(\C(=O)N[C@@H]1C(=O)N(S(=O)(=O)O)[C@@H]1CSc1nc2ccccc2o1)c1csc(N)n1)c1cc(=O)c(O)cn1O (some centres undefined) ; its Selectivity Index = 2

###

- Tested on: Klebsiella pneumoniae
- EXPERIMENT: Antibacterial activity against KPC-2 producing Klebsiella pneumoniae isolate 209632 after 18 hrs by CLSI broth microdilution method
- Format: functional
- CONDITION_CONTEXT: isolate 209632, 18 h
VALUE_TYPE: MIC

The recorded MIC for entry C=CC1[C@H](NC(=O)/C(=N\OC(c2cc(=O)c(O)cn2O)C(C)C)c2csc(N)n2)C(=O)N1S(=O)(=O)O (stereo partly drawn) equals > 64 µg/mL

// MIC lookup, compound = CC(C)C(O/N=C(\C(=O)N[C@@H]1C(=O)N(S(=O)(=O)O)[C@@H]1CN1CCNCC1)c1csc(N)n1)c1cc(=O)c(O)cn1O (stereo partly drawn) , result: > 64 µg/mL

Reported MIC for CC(C)C(O/N=C(\C(=O)NC1C(=O)N(S(=O)(=O)O)C12CCC2)c1csc(N)n1)c1cc(=O)c(O)cn1O (stereo not drawn) was > 64 µg/mL
